// molecules with IC50 on UniProtKB P00748, multi-source literature

COc1nc(OCC2CCN(C)CC2)ccc1CNc1ccc2c(N)nccc2c1 = 100 to 300 nM
CN(Cc1ccccc1)C(=O)N1CC2(COc3ccn(C)c(=O)c3)CC1(CNc1cccc3c(N)nccc13)C2 = 1 to 10 nM
Nc1nccc2c(NCc3cnc(N4CCn5c(nnc5C(F)(F)F)C4)cn3)cccc12 = 300 to 1000 nM
CN1CCc2ccc(N3CCc4c(C(=O)NCC56CC(CO)(CCO5)C6)nn(-c5cccc(Cl)c5)c4C3=O)cc2C1=O = 300 to 1000 nM
O=C(NCc1cc(C2CC2)[nH]n1)c1nn(-c2cccc(Cl)c2)c2c1CCN(c1ccc3c(c1)C(=O)N(CCO)CC3)C2=O = 100 to 300 nM

Req: Entry CN1CCC(Oc2ccc(CNc3cccc4c(N)nccc34)cc2)CC1 : reported IC50 = ?
Resp: 100 to 300 nM

Req: Entry Cc1cc(NCc2ccc(NCC3CCN(C)CC3)nc2)c2cc[nH]c2n1 : reported IC50 = ?
Resp: 3000 to 10000 nM

Req: Entry Nc1nccc2c(NCc3ccc(N4CCn5ccnc5C4CO)nc3)cccc12 (stereo not drawn) : reported IC50 = ?
Resp: 3000 to 10000 nM

Req: Entry Cc1cc2c(NCc3ccc(N4CCn5c(nnc5C(F)F)C4)nc3)ccnc2[nH]1 : reported IC50 = ?
Resp: 1000 to 3000 nM

###

// compounds with pIC50 on Human Factor XIIa (Homo sapiens), multi-source literature
pIC50: −log10 of the molar value.

Nc1nccc2c(NCc3ccc(NCCc4nccn4C(F)F)nc3)cccc12 = 4.40 to 5.00
CN1CCc2ccc(N3CCc4c(C(=O)NC5CCNCC5(F)F)nn(-c5cccc(Cl)c5)c4C3=O)cc2C1=O (stereo not drawn) = 6.52 to 7.00
CN1CCC(OCc2ccc(CN(C)c3cccc4c(N)nccc34)c(Cl)c2)CC1 = 5.52 to 6.00
Cn1ccc(OCC23CN(C(=O)OCc4cccnc4)C(CNc4cccc5c(N)nccc45)(C2)C3)cc1=O = 7.00 to 8.00

Req: Write down the reported pIC50 of Cc1cc(CNC(=O)c2nn(-c3cccc(Cl)c3)c3c2CCN(c2cc4c(cn2)CCN(CCO)C4)C3=O)nn1C , test system: Human Factor XIIa (Homo sapiens).
Resp: 7.00 to 8.00

Req: Write down the reported pIC50 of COCCN1CCc2ccc(N3CCc4c(C(=O)NCC5CC5)nn(-c5cccc(Cl)c5)c4C3=O)cc2C1 , test system: Human Factor XIIa (Homo sapiens).
Resp: 7.00 to 8.00

###

// molecules with IC50 on Human Factor XIIa (Homo sapiens, UniProt P00748), multi-source literature

CCNC(=O)c1nn(-c2cccc(Cl)c2)c2c1CCN(c1cccc(N3CCN(C(C)C)C3=O)c1)C2=O = 3000 to 10000 nM
CC(C)N1C[C@H]2C[C@@H]1CN2CCc1ccc(CNc2ccc3c(N)ncc(Cl)c3c2)c(F)c1 = 300 to 1000 nM
CN1CCC(COc2ccc(CNc3ccc4c(N)nccc4c3)cn2)CC1=O (stereo not drawn) = 300 to 1000 nM
Nc1ncc(Cl)c2cc(NCc3ccnc(OCC4CCn5c(CO)cnc5C4)c3)ccc12 (stereo not drawn) = 300 to 1000 nM
COc1ccc(CNC(=O)c2nn(-c3cccc(Cl)c3)c3c2CCN(c2ccc4c(c2)C(=O)N(C)CC4)C3=O)cn1 = 100 to 300 nM

Query molecule follows.
Req: Write down the reported IC50 of Cn1ccc(OCC23CN(C(=O)Cc4ccccc4)C(CNc4cccc5c(N)nccc45)(C2)C3)cc1=O , test system: Human Factor XIIa (Homo sapiens, UniProt P00748).
Resp: 10 to 100 nM

###

pIC50: −log10 of the molar value.
// compounds with pIC50 on Human Factor XIIa (Homo sapiens), multi-source literature

Below, 2 compounds whose answers are already recorded.
CN1CCC(COc2ccc(CNc3ccc4c(N)ncnc4c3)cn2)CC1 = 4.40 to 5.00
CN1CCc2ccc(N3CCc4c(C(=O)NC(CO)C5CCOC5)nn(-c5cccc(Cl)c5)c4C3=O)cc2C1=O (stereo not drawn) = 6.00 to 6.52

Query compound follows.
Req: Write down the reported pIC50 of Nc1nccc2c(NCC34CC(COc5ccc6c(c5)CNC6=O)(CCO3)C4)cccc12 , test system: Human Factor XIIa (Homo sapiens).
Resp: 7.00 to 8.00

###

// molecules with IC50 on Human Factor XIIa (Homo sapiens, UniProt P00748), multi-source literature

Cn1ccc(OCC23CN(C(=O)NCc4ccc5occc5c4)C(CNc4cccc5c(N)nccc45)(C2)C3)cc1=O = 0.01 to 0.1 µM
Cc1cc(N2CCn3c(nnc3C(F)(F)F)C2)ncc1CNc1ccc2nccn2c1 = 10 to 40 µM
CC(=O)N1CC2(CNc3cccc4c(N)nccc34)CC1(COc1ccn(C)c(=O)c1)C2 = 0.1 to 0.3 µM

Req: Write down the reported IC50 of Nc1nccc2c(NCC34CC(COc5ccncn5)(CCO3)C4)cccc12 , test system: Human Factor XIIa (Homo sapiens, UniProt P00748).
Resp: 3 to 10 µM

Req: Write down the reported IC50 of O=C(NCC1CCOC1)c1nn(-c2cccc(Cl)c2)c2c1CCN(c1ccc3c(c1)C(=O)N(CCO)CC3)C2=O (stereo not drawn) , test system: Human Factor XIIa (Homo sapiens, UniProt P00748).
Resp: 0.3 to 1 µM

Req: Write down the reported IC50 of Cc1cc(CNC(=O)c2nn(-c3cccc(Cl)c3)c3c2CCN(c2ccc4c(c2)C(=O)N(CC(F)(F)F)CCO4)C3=O)n[nH]1 , test system: Human Factor XIIa (Homo sapiens, UniProt P00748).
Resp: 0.01 to 0.1 µM
